tgt: recombinant human MetAP-2 (Homo sapiens, UniProt P50579)
Construct: His tag (N); TEV cleavage site (N); made in house
Sequence (P50579 whole entry): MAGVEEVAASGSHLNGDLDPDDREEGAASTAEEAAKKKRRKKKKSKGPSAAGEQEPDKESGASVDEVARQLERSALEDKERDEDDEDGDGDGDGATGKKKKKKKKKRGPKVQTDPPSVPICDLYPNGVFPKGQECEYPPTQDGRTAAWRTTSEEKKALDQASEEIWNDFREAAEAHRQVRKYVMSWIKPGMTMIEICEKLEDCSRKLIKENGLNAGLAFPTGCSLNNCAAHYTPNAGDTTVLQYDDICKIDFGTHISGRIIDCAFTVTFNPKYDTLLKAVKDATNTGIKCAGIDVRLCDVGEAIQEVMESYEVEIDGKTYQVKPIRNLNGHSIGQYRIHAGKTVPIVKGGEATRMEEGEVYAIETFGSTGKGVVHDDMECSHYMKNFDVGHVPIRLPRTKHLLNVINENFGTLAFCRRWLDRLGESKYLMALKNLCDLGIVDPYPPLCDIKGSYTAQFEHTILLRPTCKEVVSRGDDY
test-name: Enzymatic activity assay of Methionine aminopeptidase 2 (enzyme coupled assay, Met-Ala-Ser substrate)
Assay type: biochemical
reported-conditions: recombinant human MetAP-2 (His-Tev-MetAP-2), absorbance at 450 nm, kinetic mode, read-out: MeAP2 IC50
measurement-label: IC50

Recorded results for 6 compounds are shown here.
O=C(NCc1cc(F)cc(Cl)c1)[C@@]1(O)CCN(c2ccc3c(c2)C2(CCC2)S(=O)(=O)N3)C1=O [Compound 19]; < 1000 nM
CP(C)(=O)c1ccc(N2CC[C@](O)(C(=O)NCc3cc(F)cc(F)c3)C2=O)cc1 [Compound 1]; < 1000 nM
CP(C)(=O)c1cccc(N2CC[C@](O)(C(=O)NCc3cc(F)cc(F)c3)C2=O)c1 [Compound 2]; < 1000 nM
CP(C)(=O)c1ccc(N2CC[C@](O)(C(=O)NCc3cc(F)cc(F)c3)C2=O)cn1 [Compound 6]; < 1000 nM
C[Si](C)(C)c1ccc(N2CC[C@](O)(C(=O)NCc3cc(F)cc(F)c3)C2=O)cc1 [Compound 11]; < 1000 nM
O=C(NCc1cc(F)cc(F)c1)[C@@]1(O)CCN(c2ccc3c(c2)C2(CC2)CN3)C1=O [Compound 12]; < 1000 nM

recombinant human MetAP-2 (Homo sapiens, UniProt P50579) / IC50 / CP(C)(=O)c1cccc(N2CC[C@@](O)(C(=O)NCc3cc(F)cc(F)c3)C2=O)c1 [Compound 2a] : value?
1000 to 10000 nM

---

tgt: recombinant human MetAP-2 (Homo sapiens, UniProt P50579)
Construct: His tag (N); TEV cleavage site (N)
test-name: Enzymatic activity assay of Methionine aminopeptidase 2 (enzyme coupled assay, Met-Ala-Ser substrate)
reported-conditions: recombinant human MetAP-2 (His-Tev-MetAP-2), absorbance at 450 nm, kinetic mode, read-out: MeAP2 IC50
measurement-label: IC50

Example results:
O=C1Nc2ccc(N3CC[C@](O)(C(=O)NCc4cc(F)cc(F)c4)C3=O)cc2C12CC2; < 1000 nM
O=C1Nc2ccc(N3CC[C@](O)(C(=O)NCc4cc(F)cc(F)c4)C3=O)cc2C12CCCC2; < 1000 nM
O=C(NCc1cc(F)cc(Cl)c1)[C@@]1(O)CCN(c2ccc(P(=O)(C3CC3)C3CC3)cc2)C1=O; < 1000 nM
CC(C)P(=O)(c1ccc(N2CC[C@](O)(C(=O)NCc3cc(F)cc(Cl)c3)C2=O)cc1)C(C)C; < 1000 nM
O=C(NCc1cc(F)cc(Cl)c1)C1(O)CCN(c2ccc(P(=O)(C3CCC3)C3CCC3)cc2)C1=O (racemic); < 1000 nM
O=C1Nc2ccc(N3CC[C@](O)(C(=O)NCc4cc(F)cc(Cl)c4)C3=O)cc2C12CCC2; < 1000 nM
CP(C)(=O)c1ccc(N2CC[C@@](O)(C(=O)NCc3cc(F)cc(F)c3)C2=O)cn1; > 10000 nM
O=C(NCc1cc(F)cc(Cl)c1)[C@]1(O)CCN(c2ccc(P(=O)(C3CCC3)C3CCC3)cc2)C1=O; 1000 to 10000 nM

Can you look up IC50 on recombinant human MetAP-2 (Homo sapiens, UniProt P50579) for `CP(C)(=O)c1ccc(N2CC[C@](O)(C(=O)NCc3cc(F)cc(Cl)c3)C2=O)cc1` ?
< 1000 nM

# get_value(readout= IC50, system= recombinant human MetAP-2 (Homo sapiens, UniProt P50579)) for `O=C1Nc2ncc(N3CC[C@](O)(C(=O)NCc4cc(F)cc(Cl)c4)C3=O)cc2C12CC2`
< 1000 nM

Give recombinant human MetAP-2 (Homo sapiens, UniProt P50579) IC50 for `O=C(NCc1cc(F)cc(F)c1)[C@@]1(O)CCN(c2ccc3c(c2)C2(CCC2)S(=O)(=O)N3)C1=O`
< 1000 nM

What is its IC50 for recombinant human MetAP-2 (Homo sapiens, UniProt P50579)? Entry: `CC(C)P(=O)(c1ccc(N2CC[C@@](O)(C(=O)NCc3cc(F)cc(F)c3)C2=O)cc1)C(C)C`
< 1000 nM

Enter reported IC50 observed with recombinant human MetAP-2 (Homo sapiens, UniProt P50579) for `O=C(NCc1cc(F)cc(Cl)c1)[C@]1(O)CCN(c2ccc(P(=O)(C3CC3)C3CC3)cc2)C1=O`
1000 to 10000 nM

Request - read-out IC50 | tested on recombinant human MetAP-2 (Homo sapiens, UniProt P50579) | molecule `CCP(=O)(CC)c1ccc(N2CC[C@](O)(C(=O)NCc3cc(F)cc(F)c3)C2=O)cc1`
< 1000 nM

Enter reported IC50 observed with recombinant human MetAP-2 (Homo sapiens, UniProt P50579) for `O=C1Nc2ccc(N3CC[C@](O)(C(=O)NCc4cc(F)cc(Cl)c4)C3=O)cc2C12CC2`
< 1000 nM
